tested on: EKVX NSCLC; assay: NCI-60 one-dose screen, 48 h; details: 10 µM unless noted
About 83,000 compounds went through this panel and 20% of them were active in at least one assay; those are over-represented in the sample as a whole. The source made the active and inactive calls. The calls were made as follows: active = growth percent below 10; inactive = the rest.
Please state which outcome applies, choosing from True (active), False (inactive)

Worked examples, 3 compounds total:
CCOC(=O)C(=Cc1c(-c2ccccc2)[nH]c2ccccc12)C(=O)OCC	False
C/C(=C\c1cnc(C)s1)[C@@H]1C[C@@H]2O[C@@H]2CCC[C@H](C)[C@H](O)[C@@H](C)C(=O)C(C)(C)[C@@H](O)CC(=O)O1	False
O=C1Nc2ccccc2C12C=C(c1ccccc1)Nc1c2c(-c2ccccc2)nn1-c1ccccc1 (configuration not stated)	False

Inquiry: Which outcome was assigned to `C[C@@H]1C(=O)[C@@H]2C[C@@H](O)[C@@H](O)C[C@]2(C)[C@H]2CC[C@@]3(C)C(=C12)CC[C@@H]3[C@@](C)(O)[C@H](O)CCC(C)(C)O` in this test?
Reply text: False

Inquiry: Lookup O=c1c2ccccc2n(CC(O)CN2CCCC2)c2c(Br)cccc12 (configuration not stated)
Reply text: False

====

tested on: NCI-H522 lung; assay: NCI-60 one-dose screen, 48 h (100 = growth as untreated, 0 = no growth, -100 = all killed); conditions: 10 µM unless noted
The panel holds about 83,000 compounds, 20% with a hit somewhere; the sample as a whole holds those more often.
Outcome: 1.0 for growth of at least 90%; 0.0 for anything lower.

Worked examples, 4 compounds total:
Cc1cccc(C)c1Nc1nnc(-c2ccc(F)cc2)o1	1.0
O=C(Nc1cc(Br)ccn1)c1cc2cc(Nc3nc(-c4ccccc4)nc4ccccc34)ccc2oc1=O	1.0
CCOCCc1c(O)nc(SC)[nH]c1=O	1.0
COc1ccc(C(=O)c2cc(OC)c(C)c(OC)c2)cc1OC(=O)CCl	0.0

Shifting focus to the compound that follows.
Inquiry: State whether the measured growth reaches 90%, counting equality as reaching it, for `Cn1c2ccccc2c2c(OC(=O)c3ccccc3)c3c(nc21)-c1ccccc1C3`
Reply text: 0.0

====

test system: NCI/ADR-RES ovarian; assay: NCI-60 one-dose screen, 48 h (100 = growth as untreated, 0 = no growth, -100 = all killed); conditions: 10 µM unless noted
Compounds without any hit were thinned out: in the full panel of roughly 83,000, 20% have a hit.
Readout label: growth (%)
Give bare numbers, in %.

CC(C)C[C@H](C(=O)O)N(C)C(=O)[C@@H]1CCCN1C(=O)[C@H](C)OC(=O)[C@H](CCC(N)=O)NC(=O)[C@@H]1CCC(=O)N1	111
Cn1nc(C(F)(F)F)c(-c2cc(C(F)(F)F)cc(C(F)(F)F)c2)c1-c1ccc(OCc2ccc(Cl)cc2)cc1O	1.98

Hi there! I need growth for each item below, if you can.
1. COC(=O)c1cc2c3c(cc(O)c2[nH]1)N(C(=O)C1Cc2cc(OC)c(OC)c(OC)c2N1)CC3CCl (configuration not stated)
2. CCc1ccc(OCc2ccccc2C(=O)Nc2ccc3nc(C)cc(N)c3c2)cc1
3. Nc1cc(N)nc(SCC(=O)O)n1
4. COc1cc2cc(c1Cl)N(C)C(=O)C[C@H](OC(=O)[C@H](C)N(C)C(=O)CCS)C[C@]1(C)O[C@H]1[C@H](C)[C@@H]1C[C@@](O)(NC(=O)O1)[C@H](OC)/C=C/C=C(\C)C2

Reply text:
1: -34.6; 2: -71.5; 3: 104; 4: 10.5

Inquiry: Quick one: growth of `C=C1C(=O)O[C@H]2[C@H]1CC/C(COC(=O)N1CCC[C@H]1C(=O)Nc1ccc(OC)c(C(N)=O)c1O)=C\CC[C@@]1(C)O[C@@H]21` ?
Reply text: 106
